Assay: Selectivity index, ratio of CC50 for mouse peritoneal macrophages to EC50 for Leishmania infantum MHOM/MA/67/ITMAP263 promastigotes infected in BALB/c mouse peritoneal macrophages
Format: toxicity
Conditions: read-out: Ratio CC50/EC50
parameter measured: selectivity ratio
Reply with the value as a number alone.

Give the measured selectivity ratio of O=C(O[C@@H]1Cc2c(O)cc(O)cc2O[C@@H]1c1cc(O)c(O)c(O)c1)c1cc(O)c(O)c(O)c1 [EPIGALOCATECHIN GALLATE] .
168
